Reported percent blocking values for a set of binders
Biological target: BR P.1 variant RBD (R319-F541 with K417T, E484K, N501Y), C-terminal 6-His (SARS-CoV-2, UniProt P0DTC2 319-541)
Assay: flow cytometry, blocking of binding to hACE-2 cells
Report as a plain number; the unit % is understood.

BINDER	percent blocking / %
1035224 (antibody, V domains shown) VH: EVQLQQSGAEFVRPGALVKLSCKASGFNIKDDYMHWVKQRPEQGLEWIGWIDPENGNSIYDPKFQGKASITADTSSNTAYLQLSSLTSEDTAVYYCARGEYFGSGSFAYWGQGTLVTVSA VL: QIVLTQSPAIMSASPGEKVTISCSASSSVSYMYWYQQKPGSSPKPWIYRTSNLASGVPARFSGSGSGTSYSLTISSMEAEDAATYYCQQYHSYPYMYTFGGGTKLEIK	88
1035433 (antibody, V domains shown) VH: QVQLQQSGPQLVRPGASVKISCKASGYSFTIYWMHWVQQRPGQGLEWIGMIDPSDSETRLNQKFKDKATLTVDKSSSTAYMQLSSPTSEDSAVYYCARRGDYNFDYWGQGTTLTVSS VL: DIVMTQAAPSVPATPGESVSISCRSSKSLLHSNGNTYLYWFLQRPGQSPQLLIFRMSNLASGVPDRFSGSGSGTAFTLRISRVEAEDVGVYYCMQHLEYPYTFGGGTKLEIK	0

Please find the next binder below.
Briefly, percent blocking measured for 1035753 (antibody, V domains shown) VH: EVQLQQSGAELVRPGALVKLSCKASGFNIKDYYMHWVKQRPEQGLEWIGWIDPENGNTIYDPKFLGKASITADTSSNTAYLQLSSLTSEDTAVYYCARWYYYAMDSWGQGTSVTVSS VL: DIQMTQTTSSLSASLGDRVTISCSASQGISNYLNWYQQKPDGTVKLLIYYTSSLHSGVPSRFSGSGSGTDYSLTISNLEPEDIATYYCQQYSKLPFTFGGGTNLEMK : 90.4
